Tested on: Saccharomyces cerevisiae;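 note: PSI is a weighted mean of sequencing reads over stability bins, variants kept only with over 10 reads, mCherry proximal and sfGFP distal, peptide attached via GGGS linker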
assay.details: protein stability index of tFT-peptide fusion (C-terminal peptide) (PSI (0-1 scale)); higher = more stable (slower turnover)
experimental.context: genetic background: wild type; temperature: 30 C
measured.parameter: protein stability index
Please respond with just the number, no unit label.

Example results:
> print(dat)
          chain                    target  data.value
1  CRVNSVRPVYPS  Saccharomyces cerevisiae       0.708
2  FTLLLFVPSLGS  Saccharomyces cerevisiae       0.618
3  GPTFPPGLPSSL  Saccharomyces cerevisiae       0.695

Problem: Item under review: DPAASNTTTRRL . Reported protein stability index?
Solution: 0.686

Problem: Can you handle RSIYEFVPIRYV next?
Solution: 0.594

Problem: Same thing, different sequence: LLSSFIFSILFF
Solution: 0.496

Problem: And VGGRDWADSLVV ?
Solution: 0.772
